Target: UniProt:Q16539
Assay: Enzymatic assay: inhibition of p38 MAP-kinase (phosphorylation of GST-tagged ATF2, chemoluminescence bead readout)
Type: biochemical
Settings: inhibitor 1 μM; activated p38 MAP-kinase 1 nM; 4 h preincubation; ATP 100 μM; ATF2 10 nM; read-out: % inhibitory effect at 1 μM
Give measured inhibition at 1 µM for each item. Keep answers brief.
Write the answer as a number in %, unit excluded.

Query: Would you kindly share the measured inhibition at 1 µM for `COc1c(CSC)cc(C(C)(C)C)cc1NC(=O)c1ccc(C)c(Oc2ccnc(CC3CCNCC3)c2)c1` ?
Result: 99.5

Query: What does the record list as inhibition at 1 µM for `COc1c(NC(=O)c2ccc(C)c(Oc3cc(N4CC[C@@H](N(C)C)C4)ncn3)c2)cc(C(C)(C)C)cc1NS(C)(=O)=O` ?
Result: 95.8

Query: Give its inhibition at 1 µM value. Item: `COc1c(NC(=O)c2ccc(C)c(Oc3cc(N4CCCC4)ncn3)c2)cc(C(C)(C)C)cc1NS(C)(=O)=O`
Result: 97.5

Query: Given the compound `COc1c(NC(=O)c2ccc(C)c(Oc3ccnc(N(C)C4CCN(C)CC4)n3)c2)cc(C(C)(C)C)cc1NS(C)(=O)=O` , what is its reported inhibition at 1 µM?
Result: 99.4

Query: Request the reported inhibition at 1 µM associated with `COc1c(NC(=O)c2ccc(C)c(Oc3ccnc(CN4CCN(C)CC4)c3)c2)cc(C(C)(C)C)cc1NS(C)(=O)=O`
Result: 98.9

Query: // inhibition at 1 µM lookup, key: `COc1c(NC(=O)c2ccc(C)c(Oc3ccncc3)c2)cc(C(C)(C)C)cc1NS(C)(=O)=O`
Result: 97.7

Query: Can you look up the measured inhibition at 1 µM of COc1c(NC(=O)c2ccc(C)c(Oc3ccnc(N(C)C4CCN(C)C4)n3)c2)cc(C(C)(C)C)cc1NS(C)(=O)=O (stereo not shown) for me?
Result: 98.6

----------
Molecular target: p38 MAP-kinase (Homo sapiens)
Sequence (Q16539 whole entry): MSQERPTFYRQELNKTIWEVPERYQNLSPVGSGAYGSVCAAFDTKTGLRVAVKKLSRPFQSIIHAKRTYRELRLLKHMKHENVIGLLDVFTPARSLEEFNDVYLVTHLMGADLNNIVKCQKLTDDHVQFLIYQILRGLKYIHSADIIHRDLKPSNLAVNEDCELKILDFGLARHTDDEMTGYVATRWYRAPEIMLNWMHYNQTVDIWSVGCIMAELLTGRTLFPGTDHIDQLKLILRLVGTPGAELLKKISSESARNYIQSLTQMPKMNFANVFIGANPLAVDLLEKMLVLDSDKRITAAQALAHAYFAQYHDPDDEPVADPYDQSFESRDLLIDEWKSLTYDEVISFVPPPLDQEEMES
Assay: Enzymatic assay: inhibition of p38 MAP-kinase (phosphorylation of GST-tagged ATF2, chemoluminescence bead readout)
Assay type: biochemical
Conditions: inhibitor 1 μM; activated p38 MAP-kinase 1 nM; 4 h preincubation; ATP 100 μM; ATF2 10 nM; read-out: % inhibitory effect at 1 μM
Can you tell me inhibition at 1 µM for the items I'm about to list?
// return numeric value only (unit: %, not printed)

Query: What value of inhibition at 1 µM has been reported for the following compound? `COc1c(NC(=O)c2ccc(C)c(Oc3ccnc(CNC4CCN(C)CC4)n3)c2)cc(C(C)(C)C)cc1NS(C)(=O)=O`
Result: 96.7

Query: Consider the compound `COc1c(NC(=O)c2ccc(C)c(Oc3ccnc(NC4CCNCC4)n3)c2)cc(C(C)(C)C)cc1NS(C)(=O)=O` and give its measured inhibition at 1 µM.
Result: 98.9

Query: So what does the record say about inhibition at 1 µM for `COc1c(NC(=O)c2ccc(C)c(Oc3ccnc(CN4CC[C@@H](O)C4)c3)c2)cc(C(C)(C)C)cc1NS(C)(=O)=O` ?
Result: 97

Query: // inhibition at 1 µM lookup, key: `COc1c(NC(=O)c2ccc(Cl)c(Oc3ccnc(N4CCNCC4)n3)c2)cc(C(C)(C)C)cc1NS(C)(=O)=O`
Result: 98.3

Query: Would you mind telling me what inhibition at 1 µM value was observed for `COc1c(NC(=O)c2ccc(Cl)c(Oc3cc(C(=O)N4CCNCC4)ncn3)c2)cc(C(C)(C)C)cc1NS(C)(=O)=O` ?
Result: 95

Query: Entry `COc1c(NC(=O)c2cc(Cl)c(C)c(Oc3ccnc(N4CCNCC4)n3)c2)cc(C(C)(C)C)cc1NS(C)(=O)=O` : reported inhibition at 1 µM = ?
Result: 98.6

Query: Item under review: `COc1c(NC(=O)c2ccc(C)c(Oc3ccnc(CN4CCOCC4)n3)c2)cc(C(C)(C)C)cc1NS(C)(=O)=O` . Reported inhibition at 1 µM?
Result: 95.2

Query: Need inhibition at 1 µM of COc1c(NC(=O)c2ccc(C)c(Oc3cc(N(C)C4CCN(C)C4)ncn3)c2)cc(C(C)(C)C)cc1NS(C)(=O)=O (centres unmarked) , thanks.
Result: 95.6

Query: Given the entry `COc1c(NC(=O)c2ccc(Cl)c(Oc3ccnc(CC4CCNCC4)n3)c2)cc(C(C)(C)C)cc1NS(C)(=O)=O` , report its measured inhibition at 1 µM.
Result: 99

Query: Which inhibition at 1 µM is reported for this compound? `COc1c(NC(=O)c2ccc(Cl)c(Oc3ccnc(CN(C)CCN(C)C)n3)c2)cc(C(C)(C)C)cc1NS(C)(=O)=O`
Result: 82.6

Query: Item `COc1c(NC(=O)c2ccc(C)c(Oc3ccnc(NC4CCN(C)CC4)n3)c2)cc(C(C)(C)C)cc1NS(C)(=O)=O` has what recorded inhibition at 1 µM?
Result: 98.6

Query: I am curious: what inhibition at 1 µM value has been reported for `COc1c(NC(=O)c2ccc(C)c(Oc3cc(NC4CCNCC4)ncn3)c2)cc(C(C)(C)C)cc1NS(C)(=O)=O` ?
Result: 98.2

Query: Would you mind telling me what inhibition at 1 µM value was observed for `COc1c(NC(=O)c2ccc(Cl)c(Oc3ccnc(CNCCN(C)C)n3)c2)cc(C(C)(C)C)cc1NS(C)(=O)=O` ?
Result: 91.3

Query: inhibition at 1 µM lookup needed for `COc1c(NC(=O)c2ccc(Cl)c(Oc3ccnc(NC4CCNCC4)c3)c2)cc(C(C)(C)C)cc1NS(C)(=O)=O` , thanks.
Result: 99.4

----------
Answer each item with its documented inhibition at 1 µM.
Target: p38 MAP-kinase (Homo sapiens)
Assay: Enzymatic assay: inhibition of p38 MAP-kinase (phosphorylation of GST-tagged ATF2, chemoluminescence bead readout)
Format: biochemical
Conditions: inhibitor 1 μM; activated p38 MAP-kinase 1 nM; 4 h preincubation; ATP 100 μM; ATF2 10 nM; read-out: % inhibitory effect at 1 μM
Express the result in % but write the number alone.

Query: Return reported inhibition at 1 µM; argument: COc1c(NC(=O)c2ccc(C)c(Oc3ccnc(N4CC[C@@H](N(C)C)C4)n3)c2)cc(C(C)(C)C)cc1NS(C)(=O)=O [4(6)]
Result: 98

Query: Find the recorded inhibition at 1 µM belonging to COc1c(NC(=O)c2ccc(Cl)c(Oc3cc(CNCCN(C)C)ncn3)c2)cc(C(C)(C)C)cc1NS(C)(=O)=O [8(31)] and report it.
Result: 86.5

Query: Please report the recorded inhibition at 1 µM for COc1c(NC(=O)c2ccc(C)c(Oc3ccnc(CN4CC[C@H](N(C)C)C4)n3)c2)cc(C(C)(C)C)cc1NS(C)(=O)=O [8(21)] .
Result: 98.5

Query: What value of measured inhibition at 1 µM is listed for COc1c(NC(=O)c2ccc(C)c(Oc3ccnc(CC4CCNCC4)c3)c2)cc(C(C)(C)C)cc1NC(=O)C1CC1 [5(43)] ?
Result: 98.6

Query: Value lookup for inhibition at 1 µM; key = COc1c(NC(=O)c2ccc(C)c(Oc3ccnc(CN4CC[C@H](O)C4)c3)c2)cc(C(C)(C)C)cc1NS(C)(=O)=O [8(13)]
Result: 96.8

Query: Could you share which inhibition at 1 µM value was measured for COc1c(NC(=O)c2ccc(C)c(Oc3cc(CN(C)CCN(C)C)ncn3)c2)cc(C(C)(C)C)cc1NS(C)(=O)=O [8(30)] ?
Result: 91.3

Query: // lookup inhibition at 1 µM for COc1c(NC(=O)c2ccc(C)c(Oc3ccnc(N4CCNCC4)n3)c2)cc(C(C)(C)C)cc1NS(C)(=O)=O [Example 5]
Result: 99

Query: Can you share its inhibition at 1 µM? I mean this molecule: COc1c(CS(C)(=O)=O)cc(C(C)(C)C)cc1NC(=O)c1ccc(C)c(Oc2ccnc(CC3CCNCC3)c2)c1 [5(41)]
Result: 99.6
